Test system: Pichia kudriavzevii
Test: Antifungal activity against Candida krusei PMC 0613 after 48 hrs by CLSI broth microdilution method
Format: functional
Details: PMC 0613, 48 h
# 1.0 = MIC50 below 4 µg/mL (exclusive); 0.0 = MIC50 at/above 4 µg/mL

I wonder whether CCS(=O)(=O)N1CCN(c2ccc(NC(=O)OC(Cn3ccnc3)c3ccc(F)cc3)cc2)CC1 (centres undefined) has MIC50 below 4 µg/mL. Can you tell?
0.0

I wonder whether O=C(Nc1ccc(N2CCN(C(=O)c3ccco3)CC2)cc1)OC(Cn1ccnc1)c1ccc(F)cc1 (centres undefined) has MIC50 below 4 µg/mL. Can you tell?
0.0

I wonder whether O=C(OC(Cn1ccnc1)c1ccc(Cl)cc1)N1CCN(C(=O)c2ccco2)CC1 (centres undefined) has MIC50 below 4 µg/mL. Can you tell?
0.0

I wonder whether O=C(OC(Cn1ccnc1)c1ccc(Cl)cc1)N1CCN(c2ccc(Cl)cc2)CC1 (centres undefined) has MIC50 below 4 µg/mL. Can you tell?
1.0

I wonder whether O=C(OC(Cn1ccnc1)c1ccc(F)cc1)N1CCN(C(=O)c2ccco2)CC1 (centres undefined) has MIC50 below 4 µg/mL. Can you tell?
0.0

I wonder whether OC(Cn1cncn1)(Cn1cncn1)c1ccc(F)cc1F has MIC50 below 4 µg/mL. Can you tell?
0.0

I wonder whether O=C(O[C@@H](Cn1ccnc1)c1ccc(Cl)cc1)N1CCN(c2ccc(Cl)cc2)CC1 has MIC50 below 4 µg/mL. Can you tell?
0.0

I wonder whether O=C(OC(Cn1ccnc1)c1ccc(F)cc1)N1CCN(c2ccc(Cl)cc2)CC1 (centres undefined) has MIC50 below 4 µg/mL. Can you tell?
1.0

====

System: Candida albicans
Test: Antifungal activity against Candida albicans ATCC 76615 after 48 hrs by CLSI broth microdilution method
Type: functional
Conditions: ATCC 76615, 48 h
Reported Endpoint: MIC50 (µg/mL)
The figure you give is taken to be in µg/mL; do not add the unit.

Need MIC50, item O=C(Nc1ccc(N2CCN(c3ccc(Cl)cc3)CC2)cc1)O[C@@H](Cn1ccnc1)c1ccc(F)cc1
0.5

Need MIC50, item O=C(OC(Cn1ccnc1)c1ccc(F)cc1)N1CCN(c2ncccc2[N+](=O)[O-])CC1 (stereo not given)
64

Need MIC50, item CCS(=O)(=O)N1CCN(c2ccc(NC(=O)OC(Cn3ccnc3)c3ccc(F)cc3)cc2)CC1 (stereo not given)
128

Need MIC50, item O=C(OC(Cn1ccnc1)c1ccc(F)cc1)N1CCN(C(=O)c2ccco2)CC1 (stereo not given)
128

Need MIC50, item O=C(OC(Cn1ccnc1)c1ccc(Cl)cc1)N1CCN(C(=O)c2ccco2)CC1 (stereo not given)
64

Need MIC50, item O=C(Nc1ccc(N2CCN(c3ccc(Cl)cc3)CC2)cc1)O[C@H](Cn1ccnc1)c1ccc(F)cc1
32

Need MIC50, item O=C(Nc1ccc(N2CCN(c3ccc(Cl)cc3)CC2)cc1)OC(Cn1ccnc1)c1ccc(F)cc1 (stereo not given)
8

Need MIC50, item O=C(Nc1ccc(N2CCN(C(=O)c3ccco3)CC2)cc1)OC(Cn1ccnc1)c1ccc(F)cc1 (stereo not given)
128

Need MIC50, item OC(Cn1cncn1)(Cn1cncn1)c1ccc(F)cc1F [FLUCONAZOLE]
0.5

Need MIC50, item O=C(OC(Cn1ccnc1)c1ccc(Cl)cc1)N1CCN(c2ccc([N+](=O)[O-])cc2)CC1 (stereo not given)
128

Need MIC50, item O=C(OC(Cn1ccnc1)c1ccc(Cl)cc1)N1CCN(c2ccc(Cl)cc2)CC1 (stereo not given)
2

Need MIC50, item O=C(O[C@H](Cn1ccnc1)c1ccc(Cl)cc1)N1CCN(c2ccc(Cl)cc2)CC1
0.5

Need MIC50, item O=C(OC(Cn1ccnc1)c1ccc(F)cc1)N1CCN(c2ccc(Cl)cc2)CC1 (stereo not given)
8

Need MIC50, item O=C(O[C@@H](Cn1ccnc1)c1ccc(Cl)cc1)N1CCN(c2ccc(Cl)cc2)CC1
8

Need MIC50, item O=C(OC(Cn1ccnc1)c1ccc(F)cc1)N1CCN(c2ccc([N+](=O)[O-])cc2)CC1 (stereo not given)
128

====

Test system: Nakaseomyces glabratus
Experiment: Antifungal activity against Candida glabrata PMC 0852R after 48 hrs by CLSI broth microdilution method
Assay type: functional
Assignment: determine reported MIC50 for the given compounds.
The figure you give is taken to be in mg/L; do not add the unit.

Need MIC50, item O=C(Nc1ccc(N2CCN(c3ccc(Cl)cc3)CC2)cc1)OC(Cn1ccnc1)c1ccc(F)cc1 (stereo not given)
4

Need MIC50, item O=C(Nc1ccc(N2CCN(c3ccc(Cl)cc3)CC2)cc1)O[C@@H](Cn1ccnc1)c1ccc(F)cc1
2

Need MIC50, item O=C(O[C@H](Cn1ccnc1)c1ccc(Cl)cc1)N1CCN(c2ccc(Cl)cc2)CC1
4

Need MIC50, item O=C(OC(Cn1ccnc1)c1ccc(Cl)cc1)N1CCN(c2ccc(Cl)cc2)CC1 (stereo not given)
4

Need MIC50, item OC(Cn1cncn1)(Cn1cncn1)c1ccc(F)cc1F
16

====

Assignment: determine reported CC50 at 48 h for the given compounds.
Experiment: Cytotoxicity against human A549 cells after 48 hrs by MTT assay
Format: cell-based
The figure you give is taken to be in µg/mL; do not add the unit.

Need CC50 at 48 h, item O=C(Nc1ccc(N2CCN(c3ccc(Cl)cc3)CC2)cc1)OC(Cn1ccnc1)c1ccc(F)cc1 (stereo not drawn)
172

Need CC50 at 48 h, item O=C(OC(Cn1ccnc1)c1ccc(Cl)cc1)N1CCN(c2ccc(Cl)cc2)CC1 (stereo not drawn)
82.2

Need CC50 at 48 h, item O=C(OC(Cn1ccnc1)c1ccc(F)cc1)N1CCN(c2ccc(Cl)cc2)CC1 (stereo not drawn)
78.4

====

Assignment: determine reported MIC50 for the given compounds.
Tested on: Cryptococcus neoformans
Experiment: Antifungal activity against Cryptococcus neoformans PMC 2136 after 72 hrs by CLSI broth microdilution method
Assay type: functional
Conditions: PMC 2136, 72 h
The figure you give is taken to be in µg/mL; do not add the unit.

Query the reported MIC50 for Cryptococcus neoformans; item: O=C(Nc1ccc(N2CCN(c3ccc(Cl)cc3)CC2)cc1)O[C@@H](Cn1ccnc1)c1ccc(F)cc1
0.0625

Query the reported MIC50 for Cryptococcus neoformans; item: O=C(O[C@H](Cn1ccnc1)c1ccc(Cl)cc1)N1CCN(c2ccc(Cl)cc2)CC1
4

Query the reported MIC50 for Cryptococcus neoformans; item: O=C(Nc1ccc(N2CCN(C(=O)c3ccco3)CC2)cc1)OC(Cn1ccnc1)c1ccc(F)cc1 (stereo unspecified)
16

Query the reported MIC50 for Cryptococcus neoformans; item: O=C(OC(Cn1ccnc1)c1ccc(F)cc1)N1CCN(c2ccc([N+](=O)[O-])cc2)CC1 (stereo unspecified)
16

Query the reported MIC50 for Cryptococcus neoformans; item: O=C(OC(Cn1ccnc1)c1ccc(F)cc1)N1CCN(c2ncccc2[N+](=O)[O-])CC1 (stereo unspecified)
2

Query the reported MIC50 for Cryptococcus neoformans; item: OC(Cn1cncn1)(Cn1cncn1)c1ccc(F)cc1F [FLUCONAZOLE]
2

====

Assignment: determine reported MIC50 for the given molecules.
Test system: Cryptococcus neoformans
Assay: Antifungal activity against Cryptococcus neoformans PMC 2102 after 72 hrs by CLSI broth microdilution method
Type: functional
Conditions: PMC 2102, 72 h
The figure you give is taken to be in µg/mL; do not add the unit.

Need MIC50, item O=C(OC(Cn1ccnc1)c1ccc(Cl)cc1)N1CCN(c2ccc(Cl)cc2)CC1 (stereo unspecified)
4

Need MIC50, item CCS(=O)(=O)N1CCN(c2ccc(NC(=O)OC(Cn3ccnc3)c3ccc(F)cc3)cc2)CC1 (stereo unspecified)
16

Need MIC50, item O=C(OC(Cn1ccnc1)c1ccc(F)cc1)N1CCN(c2ccc([N+](=O)[O-])cc2)CC1 (stereo unspecified)
32

Need MIC50, item O=C(OC(Cn1ccnc1)c1ccc(F)cc1)N1CCN(C(=O)c2ccco2)CC1 (stereo unspecified)
128

Need MIC50, item O=C(OC(Cn1ccnc1)c1ccc(Cl)cc1)N1CCN(c2ccc([N+](=O)[O-])cc2)CC1 (stereo unspecified)
16

Need MIC50, item OC(Cn1cncn1)(Cn1cncn1)c1ccc(F)cc1F
4

====

Assignment: determine reported MIC80 for the given compounds.
Tested on: Nannizzia gypsea
Experiment: Antifungal activity against Microsporum gypseum PMC 7331 after 72 hrs by CLSI broth microdilution method
Format: functional
Settings: PMC 7331, 72 h
The figure you give is taken to be in µg/mL; do not add the unit.

Need MIC80, item O=C(O[C@@H](Cn1ccnc1)c1ccc(Cl)cc1)N1CCN(c2ccc(Cl)cc2)CC1
16

Need MIC80, item O=C(Nc1ccc(N2CCN(c3ccc(Cl)cc3)CC2)cc1)O[C@@H](Cn1ccnc1)c1ccc(F)cc1
4

Need MIC80, item O=C(Nc1ccc(N2CCN(C(=O)c3ccco3)CC2)cc1)OC(Cn1ccnc1)c1ccc(F)cc1 (stereo not given)
128

Need MIC80, item O=C(Nc1ccc(N2CCN(c3ccc(Cl)cc3)CC2)cc1)O[C@H](Cn1ccnc1)c1ccc(F)cc1
128

Need MIC80, item OC(Cn1cncn1)(Cn1cncn1)c1ccc(F)cc1F
16
